System: Fer (mouse)
Test: phosphorylation enrichment, bacterial display (enrichment ratio); higher = better substrate or ligand; peptides without Tyr show the background
Catalogue of phosphorylation enrichment readings, one per entry.
Form: value (number only, do not type unit).

residue_codes="AAGGRYYGLVG [HARS1_Y363_D364Y]" metric_name="phosphorylation enrichment" val=0.45
residue_codes="KFDLMYAKWAF [TUBA3E_Y399]" metric_name="phosphorylation enrichment" val=5.85
residue_codes="EWCSPYGLTPR [GRIN3B_Y601_R598C]" metric_name="phosphorylation enrichment" val=1.2
residue_codes="CTTFHYNFMCN [TP53_Y234_I232F_YF]" metric_name="phosphorylation enrichment" val=0.581

For Fer (mouse), provide phosphorylation enrichment of GKSDPYHATSG [GJA1_Y247] please.
0.381

Find phosphorylation enrichment (Fer (mouse)) for the entry NFDLDYDSVQP [MYC_Y16_YF]
0.591

Form: Entry = ALHHPYGCDVE [ABL2_Y80_R78H] | System = Fer (mouse) | phosphorylation enrichment = ____;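 note: frequency after pTyr selection over input frequency; kinase dosed for 20-30% of maximal phosphorylation in three min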
0.447

Can you look up phosphorylation enrichment on Fer (mouse) for QRKRAYVEIEY [MAK16_Y282] ?
0.441

Please provide the recorded phosphorylation enrichment for GFSDPYVKASL [SYT3_Y470] , tested on Fer (mouse).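 Note: frequency after pTyr selection over input frequency; kinase dosed for 20-30% of maximal phosphorylation in three min.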
0.488

// map TTKGSYSLFVR [HCK_Y180_S183Y_YF] to recorded phosphorylation enrichment (system: Fer (mouse));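 note: frequency after pTyr selection over input frequency; kinase dosed for 20-30% of maximal phosphorylation in three min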
0.43

Lab note: need phosphorylation enrichment for SAEEDYKADAK [KCNT1_Y876_M877K] on Fer (mouse), anyone have it?
0.465

API: value(readout=phosphorylation enrichment, system=Fer (mouse)) for record CTTIHYNNMCN [TP53_Y234_Y236N];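 note: 11-residue human phosphosite peptides and single-mutation variants displayed on the E. coli surface, counted by deep sequencing, each peptide's frequency after selection divided by its frequency in the unselected input library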;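 note: frequency after pTyr selection over input frequency; kinase dosed for 20-30% of maximal phosphorylation in three min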
0.404

Where do these numbers come from? They come from the supplement of paper PMC10065799.
